The reported numbers originate from ChEMBL document CHEMBL4765357.

# measured-on: Medium/long-chain-fatty-acid--CoA/3-oxocholest-4-en-26-oate--CoA ligase (Mycobacterium tuberculosis, UniProt P9WQ51)
# Sequence (P9WQ51 whole entry): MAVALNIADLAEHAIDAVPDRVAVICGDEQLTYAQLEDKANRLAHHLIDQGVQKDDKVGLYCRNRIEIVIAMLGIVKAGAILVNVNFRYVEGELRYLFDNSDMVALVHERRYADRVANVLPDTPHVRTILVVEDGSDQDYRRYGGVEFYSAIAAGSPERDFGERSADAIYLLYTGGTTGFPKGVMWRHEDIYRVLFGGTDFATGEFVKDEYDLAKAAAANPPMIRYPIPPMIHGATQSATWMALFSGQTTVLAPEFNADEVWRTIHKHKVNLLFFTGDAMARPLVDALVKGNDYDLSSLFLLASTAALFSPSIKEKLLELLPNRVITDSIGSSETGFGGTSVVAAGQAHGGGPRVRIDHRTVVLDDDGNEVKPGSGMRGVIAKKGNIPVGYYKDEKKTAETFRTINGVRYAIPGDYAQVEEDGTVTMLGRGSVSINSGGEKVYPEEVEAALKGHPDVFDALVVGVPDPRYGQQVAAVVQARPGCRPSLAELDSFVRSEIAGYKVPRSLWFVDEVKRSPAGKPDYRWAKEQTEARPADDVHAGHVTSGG
# protocol: Inhibition of Mycobacterium tuberculosis H37Rv FACL19 Spectra expressed in Escherichia coli BL21(DE3) cells assessed as cleavage of MEsG by spectroscopic analysis
# assay-conditions: read-out: Ki(app)
Overview of recorded Ki for various compounds

chemical-string	inequality-symbol	Ki, µM
COc1ccccc1OCCCCCCCCCCC(=O)NS(=O)(=O)OC[C@H]1O[C@@H](n2cnc3c(N)ncnc32)[C@H](O)[C@@H]1O	>	100
CCCCCC/C=C/CCCC(=O)NS(=O)(=O)OC[C@H]1O[C@@H](n2cnc3c(N)ncnc32)[C@H](O)[C@@H]1O	>	100
COc1cccc(OCCCCCCCCCCC(=O)NS(=O)(=O)OC[C@H]2O[C@@H](n3cnc4c(N)ncnc43)[C@H](O)[C@@H]2O)c1	>	100
Nc1ncnc2c1ncn2[C@@H]1O[C@H](COS(=O)(=O)NC(=O)CCCCCCCCCCOc2cccc(F)c2)[C@@H](O)[C@H]1O	=	7.3
Nc1ncnc2c1ncn2[C@@H]1O[C@H](COS(=O)(=O)NC(=O)CCCCCCCCCCOc2ccccc2C(F)(F)F)[C@@H](O)[C@H]1O	=	28.5
CCCCCCCCCOCC(=O)NS(=O)(=O)OC[C@H]1O[C@@H](n2cnc3c(N)ncnc32)[C@H](O)[C@@H]1O	>	100
CCCCCCCCCCCC(=O)NS(=O)(=O)OC[C@H]1O[C@@H](n2cnc3c(N)ncnc32)[C@H](O)[C@@H]1O	=	67.4
